Data credit: the supplement of paper PMC12645437

Biological target: T1, CRBN, Q96SW2;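 also: pooled lentiviral library of zinc finger degron-EGFP fusions in mCherry-positive Jurkat cells, FACS-sorted after compound exposure, with degron abundance counted by next-generation sequencing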
T1 chain: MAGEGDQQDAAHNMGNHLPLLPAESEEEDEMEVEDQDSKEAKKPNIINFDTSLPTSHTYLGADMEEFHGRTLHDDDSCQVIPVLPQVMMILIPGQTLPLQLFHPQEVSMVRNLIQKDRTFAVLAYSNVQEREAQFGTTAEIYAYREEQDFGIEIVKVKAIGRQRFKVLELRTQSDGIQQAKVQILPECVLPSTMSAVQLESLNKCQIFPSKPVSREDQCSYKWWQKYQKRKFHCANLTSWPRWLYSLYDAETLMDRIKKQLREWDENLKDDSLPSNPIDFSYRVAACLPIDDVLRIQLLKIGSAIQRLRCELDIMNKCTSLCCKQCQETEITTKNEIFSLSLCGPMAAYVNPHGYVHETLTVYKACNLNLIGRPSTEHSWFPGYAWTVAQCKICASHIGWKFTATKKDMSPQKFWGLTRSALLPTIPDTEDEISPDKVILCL
Assay: log2 fold change of degron read counts, EGFP-low vs EGFP+ sorted cells (limma voom), compound-induced degradation; higher = more compound-induced degradation of the degron-EGFP fusion; degrons are variants of IKZF1/3 zinc finger 2; compound dose not given here
Conditions: Jurkat; 18 h; compound: compound 22 (5-morpholino-thalidomide)
In all, about 8,300 sequences were measured (“log2 fold change of degron read counts, EGFP-low vs EGFP+ sorted cells (limma voom), compound-induced degradation”: median about -1.1, highest 2% from about 3.2 on). The sample as a whole holds a higher share of the highest values than the screen did.
READOUT_TYPE: log2 fold change of degron read counts
Number only, please.

SEQUENCE_ENTRY: LHCEICGFHCTQKGNLLRHIKL [46L_47H_49E_50I_52G_53F_54H_55C_67L_, Q9UKT9]
READOUT_TYPE: log2 fold change of degron read counts
TEST_RESULT: 1.17

SEQUENCE_ENTRY: FYCPVCGAKFTQKGNLLRHIKL [46F_47Y_49P_50V_52G_53A_54K_55F_67L_, Q9UKT9]
READOUT_TYPE: log2 fold change of degron read counts
TEST_RESULT: 2.82

SEQUENCE_ENTRY: FKCEQCGAPFTQKGNLLRHIKL [46F_47K_49E_50Q_52G_53A_54P_55F_67L_, Q9UKT9]
READOUT_TYPE: log2 fold change of degron read counts
TEST_RESULT: -2.18

SEQUENCE_ENTRY: FECDQCGAYFTQKGNLLRHIKL [46F_47E_49D_50Q_52G_53A_54Y_55F_67L_, Q9UKT9]
READOUT_TYPE: log2 fold change of degron read counts
TEST_RESULT: -3.59

SEQUENCE_ENTRY: FCCEICGADFTQKGNLLRHIKL [46F_47C_49E_50I_52G_53A_54D_55F_67L_, Q9UKT9]
READOUT_TYPE: log2 fold change of degron read counts
TEST_RESULT: -0.401

SEQUENCE_ENTRY: FKCEICGAPFTQKGNLLRHIKL [46F_47K_49E_50I_52G_53A_54P_55F_67L_, Q9UKT9]
READOUT_TYPE: log2 fold change of degron read counts
TEST_RESULT: 1.73

For the sequence FCCEICGAPFTQKGNLLRHIKL [46F_47C_49E_50I_52G_53A_54P_55F_67L_, Q9UKT9] , give its reported log2 fold change of degron read counts.
2.99
